B1: TPR t1 (parent)
chain: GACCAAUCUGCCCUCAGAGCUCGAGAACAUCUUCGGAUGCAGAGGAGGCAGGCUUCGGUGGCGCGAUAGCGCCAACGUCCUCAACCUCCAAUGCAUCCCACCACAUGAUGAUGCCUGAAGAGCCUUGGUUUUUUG

Variants of: B1
test.method.notes: polymerase ribozyme fitness, log enrichment relative to wild type (log ratio); higher = more active; in vitro selection for triplet polymerase activity
Tag: criterion met if measured polymerase ribozyme fitness (log ratio) is not below -3, criterion not met if it is.

- variant.designation: "C34A C72U A100U"
  assigned.label: "criterion not met"
- variant.designation: "A29U G58A C115U"
  assigned.label: "criterion met"
- variant.designation: "A2G C72U C88U C124A"
  assigned.label: "criterion met"
- variant.designation: "G35U G39U C72U A75U A103U"
  assigned.label: "criterion not met"
- variant.designation: "C73A A74C"
  assigned.label: "criterion met"
- variant.designation: "A18C C49A U78G C114U"
  assigned.label: "criterion not met"
- variant.designation: "C8G C89A C94G"
  assigned.label: "criterion met"
- variant.designation: "A37G C40U G51U C82G"
  assigned.label: "criterion not met"
- variant.designation: "G10A G39U G42A C124A"
  assigned.label: "criterion met"
- variant.designation: "C4G C56A U59G C104U A111U C123U"
  assigned.label: "criterion not met"
- variant.designation: "C34A U87A A105G"
  assigned.label: "criterion not met"
- variant.designation: "G69A C88A C123G C124A G135U"
  assigned.label: "criterion not met"
- variant.designation: "C62U C101A"
  assigned.label: "criterion met"
- variant.designation: "G36A C72U C85G C89U C94U"
  assigned.label: "criterion met"
- variant.designation: "C11A G69A C86U"
  assigned.label: "criterion not met"
